This collection of values is drawn from PubChem BioAssay (NCI).

tested on: MDA-MB-231 breast; assay: NCI tumour cell line growth inhibition, 48 h
reported_metric: TGI (µM)
Kindly answer with a numeric value in µM, unit omitted.

Cc1cc(N(C)c2ccccc2)nc(N(C)c2ccccc2)n1 : 78.9

Tell me its TGI given `C=C(CN(C)C)C(=O)c1ccccc1` as the entry.
31.4

----------
test system: OVCAR-5 ovarian; assay: NCI tumour cell line growth inhibition, 48 h
reported_metric: TGI (µM)
Kindly answer with a numeric value in µM, unit omitted.

CC(O)C1(O)C(O)CC(OC2c3cc4c(c(O)c3[C@@H]3C[C@@]2(C)OC32C=c3cc[nH]c3=N2)C(=O)c2cccc(O)c2C4=O)OC1C (stereo not given in full) : 9.49

Moving on to the next compound.
Tell me its TGI given C/C=C(/C)C(=O)OC1C=C(CO)C(=O)C(OC(=O)C2(C)OC2C)C1C(C)C (stereo not given) as the entry.
3.74

----------
tested on: HOP-62 NSCLC; experiment: NCI tumour cell line growth inhibition, 48 h
reported_metric: TGI

Take a look at these entries with their results.
CCOC(=O)/C1=C(\C)N(Cc2ccccc2)C(=O)c2ccccc2C(=O)c2c(OC(C)=O)ccc(OC(C)=O)c21 : > 100 µM
CN1CCOC1(C)c1ccccc1 (stereo not given) : > 100 µM

Tell me its TGI given `O=C(Cc1csc2[n+]1C(=O)/C(=C/c1ccc(Cl)cc1)S2)Nc1ccccc1` as the entry.
30.4 µM

Tell me its TGI given `[pH]1p2[pH]p3p1p3[pH]2.c1cc[c]([Ge]([c]2ccccc2)[c]2ccccc2)cc1.c1cc[c]([Ge]([c]2ccccc2)[c]2ccccc2)cc1.c1cc[c]([Ge]([c]2ccccc2)[c]2ccccc2)cc1` as the entry.
66.1 µM

Tell me its TGI given CCCCN(CCCC)CC(C(=O)Nc1ccc([N+](=O)[O-])cc1[N+](=O)[O-])/C(C)=N\NC(=O)c1ccncc1 (stereo not given) as the entry.
> 100 µM

Tell me its TGI given `CN1CCC(=C(c2ccc(Cl)cc2)c2ccccn2)CC1` as the entry.
> 100 µM

Tell me its TGI given `CN1C(=O)[C@@H](CC2CCCC2)N(C2CCCC2)c2nc(Nc3cc(Cl)c(O)c(Cl)c3)ncc21` as the entry.
> 100 µM

Tell me its TGI given `CC(C)(Oc1cccc(N2CCC[C@@H](C(=O)N(Cc3ccc(-c4cn[nH]c4)cc3)C3CC3)C2)c1)C(=O)N1CCNCC1` as the entry.
28.5 µM

Tell me its TGI given CCOP(=O)(OCC)C(Cc1c[nH]c2ccccc12)C(=O)O (stereo not given) as the entry.
> 100 µM

Tell me its TGI given CC(O)C1(O)C(O)CC(OC2c3cc4c(c(O)c3[C@@H]3C[C@@]2(C)OC32C=c3cc[nH]c3=N2)C(=O)c2cccc(O)c2C4=O)OC1C (stereo not given in full) as the entry.
5.37 µM

Tell me its TGI given `CC(=O)n1nc(-c2[nH]c(C)c(-c3nn(C(C)=O)c(=S)o3)c2C)oc1=S` as the entry.
> 100 µM

Tell me its TGI given `O=C(Nc1nc2ccc(OC(F)(F)F)cc2s1)c1ccc(F)cc1` as the entry.
26.9 µM

Tell me its TGI given `CSc1ccccc1NC1=NCCO1` as the entry.
> 100 µM

Tell me its TGI given `COc1cc2c3c(n(CCCNCCCCN)c(=O)c2cc1OC)-c1cc2c(cc1C3=O)OCO2` as the entry.
32.5 µM

Tell me its TGI given `CN(C)Cc1ccc(O)c(CN(C)C)n1` as the entry.
> 100 µM

Tell me its TGI given `c1ccc(C2(c3cc4ccccc4[nH]3)OCCO2)nc1` as the entry.
> 100 µM

Tell me its TGI given Nc1nc2c(ncn2C2OC(CO)C(O)C2O)c(=O)o1 (stereo not given) as the entry.
> 100 µM

Tell me its TGI given `N=C1C(c2nc3ccccc3c(=O)[nH]2)=C(O)CN1c1cccc(Cl)c1` as the entry.
> 100 µM

Tell me its TGI given O=C(O)CCC1C(=O)C2CCN1CC2 (stereo not given) as the entry.
> 100 µM

Tell me its TGI given CC(=O)O[C@H]1[C@@H](OC2CCCC2(c2ccccc2)c2ccccc2)O[N+]([O-])=C[C@@H]1c1ccccc1 (stereo not given in full) as the entry.
38.2 µM

----------
system: HL-60(TB) leukemia; assay: NCI tumour cell line growth inhibition, 48 h; in the data active = GI50 below about 0.43 µM; inactive = the rest
Pick one: y (active), n (inactive)

# example entries with known answers
CCCCCCCCCCCCCCCC(=O)OCC1OC(OCCCC)[C@H](O[C@@H]2OC(C)C(OC(=O)CCC)C(O)C2O)C(O)C1O (stereo not given in full) : n
CC(=O)CCC[C@@H](C)[C@@H]1O[C@H]([C@@]2(C)CCC(=O)O2)CC2[C@H]1OC(=O)C21CC1 (stereo not given in full) : n
COc1cc2c3c(n(CCCNCCCCN)c(=O)c2cc1OC)-c1cc2c(cc1C3=O)OCO2 : y
Cc1c(Br)c(Br)c2c3c1nc(N1CCNCC1)n3CCC2 : n
CCN(CC)Cc1cc(Nc2ccnc3ccc(OC)cc23)ccc1O : n

What is the recorded call for this compound in the test? `Cc1cc2c3c(nc4ccccc42)C(=O)c2cccnc2-c3n1`
y

What is the recorded call for this compound in the test? `O=C(NNC1=NS(=O)(=O)c2ccccc2N1c1ccccc1)c1cnccn1`
n

What is the recorded call for this compound in the test? `COc1cc(C(=O)/C=C/c2cccnc2Nc2ccc(Cl)cc2)cc(OC)c1OC`
n

What is the recorded call for this compound in the test? `O=C(O)C1CC[N-]CC1.O=C(O)C1CC[N-]CC1.[NH2-].[NH2-].[Pt+4]`
n

What is the recorded call for this compound in the test? `CC(C)(Oc1cccc(N2CCC[C@@H](C(=O)N(Cc3ccc(-c4cn[nH]c4)cc3)C3CC3)C2)c1)C(=O)N1CCNCC1`
n

What is the recorded call for this compound in the test? N#Cc1c(-c2ccccc2)nc(SCC(O)CN2CCOCC2)nc1N1CCOCC1 (stereo not given)
n

What is the recorded call for this compound in the test? `CC(=O)[CH-]C(=O)c1ccccc1.CC(=O)[CH-]C(=O)c1ccccc1.CC(=O)[CH-]C(=O)c1ccccc1.[Cl-].[Hf+4]`
n

What is the recorded call for this compound in the test? `[CH3][Ge]([CH3])([CH2]CC#N)[S]c1ccccc1`
n

What is the recorded call for this compound in the test? `CCN(CC)CCOc1ccc2c(-c3ccccc3)c(-c3ccc(OC)cc3)c(=O)oc2c1`
n

What is the recorded call for this compound in the test? CCOC(=O)C(Cc1ccccc1)n1c(O)c(/C=N/c2ncc(Cc3ccc(Cl)cc3Cl)s2)sc1=S (stereo not given)
n

----------
tested on: K-562 leukemia; assay: NCI tumour cell line growth inhibition, 48 h
Measured TGI values are reported for all entries that follow.

Tell me its TGI given `CC(C)(Oc1cccc(N2CCC[C@@H](C(=O)N(Cc3ccc(-c4cn[nH]c4)cc3)C3CC3)C2)c1)C(=O)N1CCNCC1` as the entry.
18.4 µM

Tell me its TGI given CC(=O)OC1CCn2c1nc1c2C(=O)C=C(N2CC2)C1=O (configuration not stated) as the entry.
4.54 µM

Tell me its TGI given `O=c1nc(N2CCCCC2)sc2[nH]c3ccccc3c12` as the entry.
> 100 µM

Tell me its TGI given `O=C(Cn1c2ccc(Br)cc2c2nc3ccccc3nc21)NNC(=O)NC1CCCCC1` as the entry.
> 100 µM

Tell me its TGI given `C=CC(=O)C#Cc1cnc(OC)nc1OC` as the entry.
3.84 µM

Tell me its TGI given COC(=O)C1=C(N)C2=C(N)Oc3ccccc3C2CC1=C(C#N)C#N (configuration not stated) as the entry.
57.3 µM

Tell me its TGI given `CCNCCS(=O)(=O)NC[C@@]1(c2ccccc2)SC(NC(=O)C(C)(C)C)=NN1C(=O)C(C)(C)C` as the entry.
> 100 µM

Tell me its TGI given `O=C(Nc1nc2ccc(OC(F)(F)F)cc2s1)c1ccc(F)cc1` as the entry.
> 100 µM

----------
test system: CAKI-1 renal; assay: NCI tumour cell line growth inhibition, 48 h; in the data active means GI50 below about 0.43 µM; inactive means the rest
Pick one: true (1) (active), false (0) (inactive)

# example entries with known answers
COc1ccc(-c2cc(-c3ccc(Cl)cc3)nc(SCCCC(=O)NO)n2)cc1OC : true (1)
CC(=O)NC(CCc1ccc(Cl)c(Cl)c1)c1cccc(O)c(=O)c1 (stereo unspecified) : true (1)
C/C=C(/C)C(=O)OC1C=C(CO)C(=O)C(OC(=O)C2(C)OC2C)C1C(C)C (stereo unspecified) : false (0)
CCOC(=O)C(Cc1ccccc1)n1c(O)c(/C=N/c2ncc(Cc3ccc(Cl)cc3Cl)s2)sc1=S (stereo unspecified) : false (0)
N#Cc1ncc(-c2ccc(C(F)(F)F)cc2)c(NC2CCCCCC2)n1 : false (0)

What is the recorded call for this compound in the test? N#Cc1c(-c2ccccc2)nc(SCC(O)CN2CCOCC2)nc1N1CCOCC1 (stereo unspecified)
false (0)

What is the recorded call for this compound in the test? `C=C1CC[C@@](C)(c2cc(Br)c(C)cc2OC(C)=O)[C@H]1C`
false (0)

What is the recorded call for this compound in the test? O=C1NC(c2cccc3ccccc23)Nc2ccc(Cl)cc21 (stereo unspecified)
true (1)

What is the recorded call for this compound in the test? `Oc1c(Cl)cc(Cl)c(Cl)c1Cc1c(O)c(Cl)cc(Cl)c1Cl`
false (0)

What is the recorded call for this compound in the test? `COC(=O)COc1ccccc1/C=C1/N=C(c2ccccc2)N(c2c(C)n(C)n(-c3ccccc3)c2=O)C1=O`
false (0)

What is the recorded call for this compound in the test? `CCN(CC)Cc1cc(Nc2ccnc3ccc(OC)cc23)ccc1O`
false (0)
